Provenance of the data: PubChem BioAssay (NCI)

# Test system: NCI-H460 lung
# Experiment: NCI-60 one-dose screen, 48 h
# Settings: 10 µM unless noted
About 83,000 compounds went through this panel and 20% of them were active in at least one assay; those are over-represented in the sample as a whole. Active and inactive are the calls of the source. Rule for the calls: active = growth percent below 10; inactive = the rest.
Give your call using only these classes: active, inactive

Examples from the recorded data:
Query: Which result was noted for this compound in the test: `CC(C)c1nc(N(C)S(C)(=O)=O)nc(-c2ccc(F)cc2)c1/C=C/C(=O)C[C@@H](O)CC(=O)O`
Response: inactive

Query: Could you kindly confirm the outcome this assay logged for `O=C(Nc1ccc(Cl)cc1)C1=NCCCCN1` ?
Response: inactive

Query: Kindly provide the recorded test outcome for the following compound: C#Cc1c(I)n(C2OC(CO[Si](C)(C)C(C)(C)C)C3OC(C)(C)OC32)c(=O)[nH]c1=O (stereo not given)
Response: inactive

Query: // outcome(item) with item = `Nc1cc(-c2ccc(Cl)cc2)nn1-c1nc(-c2ccc(Br)cc2)cs1`
Response: inactive

Continuing:
Query: In this assay, the call recorded for COc1ccc(S(=O)(=O)NC2c3ccccc3CC2O)cc1OC (stereo not given) was what?
Response: inactive

Query: Could you kindly confirm the outcome this assay logged for CC1=C(C(=O)OCc2ccccc2)C(c2ccc3c(c2)OCO3)n2c(nc3ccccc32)N1 (stereo not given) ?
Response: active

* * *

# System: NCI/ADR-RES ovarian
# Experiment: NCI-60 one-dose screen, 48 h (100 = growth as untreated, 0 = no growth, -100 = all killed)
# Settings: 10 µM unless noted
Compounds without any hit were thinned out: in the full panel of roughly 83,000, 20% have a hit.
Could you please report measured growth for the items listed next?
Give bare numbers, in %.

Query: So what does the record say about growth for `CCOC(=O)c1ccc2c(c1)[n+](=O)c(C(C)=O)c(C(F)(F)F)n2[O-]` ?
Response: 6.85

Query: Quick one: growth for `CC(C)(C)c1ccc(C(=O)Nc2sc3c(c2C#N)CCC(=O)C3)cc1` ?
Response: 9.31

Query: Look up growth: `O=C1NCCN1/N=C/c1c(Cl)n(Cc2ccc(Cl)cc2)c2ccccc12`
Response: 90.8

Query: Which value of growth has been reported for `CC(C)=CC(=O)C1C(=O)c2ccccc2C1=O` in the records?
Response: 108

Parameter requested: growth. Apply to each item below.
1. COc1nc2ccccc2cc1/C=[N+](\[O-])c1ccccc1
2. O=C(CSc1nnc(-c2cc(-c3ccc(Cl)cc3)nc3ccccc23)n1-c1ccccc1)Nc1ccc(Cl)cc1
3. FC(F)(F)c1cccc(-c2nnn(Cc3cc(-c4cccc(Cl)c4)no3)n2)c1
4. C=C(C)[C@@H]1CC[C@]2(C#N)CC[C@]3(C)[C@H](CC[C@@H]4[C@@]5(C)CCCNC(C)(C)[C@@H]5CC[C@]43C)[C@@H]12
5. CCOc1ccc(N2C(=O)CCSC2=S)cc1

Response:
1. 44.9
2. 99.4
3. 108
4. 88.3
5. 105

* * *

# System: UACC-62 melanoma
# Experiment: NCI-60 one-dose screen, 48 h (100 = growth as untreated, 0 = no growth, -100 = all killed)
# Settings: 10 µM unless noted
Compounds without any hit were thinned out: in the full panel of roughly 83,000, 20% have a hit.
Provide the reported growth of each item.
One number for each entry, in %.

Known growth results, listed for orientation:
Query: Observed growth on UACC-62 melanoma for `CC(=O)O[C@H]1C[C@@]2(C)[C@@H](C[C@@H](O)[C@H]3[C@@]4(C)CC[C@H](N5CCCC5)[C@@H](C)[C@@H]4CC[C@@]32C)/C1=C(\CCC=C(C)C)C(=O)O` , please.
Response: 94.9

Query: Fill in the recorded growth for this compound, with UACC-62 melanoma as test system: `COc1ccc2c(O)cc3c(c2c1)[C@H](CCl)CN3C(=O)c1cc2cc(NC(=O)CCN3CCOCC3)ccc2[se]1`
Response: -76.4

Query: Provide value of growth for this record tested with UACC-62 melanoma: `Cc1c(-c2cnc3ccc(Cl)cc3c2C(=O)O)nnn1-c1ccc(Cl)cc1`
Response: 82.5

--- query ---
Query: Notebook: pull reported growth for UACC-62 melanoma, entry `Cn1cc(-c2nc(-c3c[nH]c4ccncc34)cs2)c2cc(F)ccc21`
Response: -85.7

* * *

# System: HCC-2998 colon
# Experiment: NCI-60 one-dose screen, 48 h
# Settings: 10 µM unless noted
# Experimental: Growth inhibition of the HCC-2998 human tumor cell line is measured as a screen for anti-cancer activity. Cells are grown in 96 well plates and exposed to the test compound for 48 hours. Compounds are tested at a single concentration, which is 10^-5 M for most compounds. The reported endpoint is percent growth (GI% or GIPRCNT), where numbers from 0 - 100% represent growth inhibition, and numbers from -100% - 0 represent cell death. For example, a value of 40 represents 60% growth inhibition. […]
About 83,000 compounds went through this panel and 20% of them were active in at least one assay; those are over-represented in the sample as a whole. The source made the active and inactive calls. How the source made its calls: active means growth percent below 10; inactive means the rest.
Bench note: report the call from true = active, false = inactive

Query: What was the test verdict on `C=CCn1c(SCC(=O)Nc2ccc(C(=O)/C=C/c3ccc(Cl)cc3)cc2)nnc1-c1ccccc1` ?
Response: false

Continuing:
Query: Identify the outcome logged in this assay for the compound shown: `COc1cc(/C=N/NC(=O)c2ccc3nc(-c4ccc(Cl)cc4)[nH]c3c2)cc(OC)c1OC`
Response: false

Query: recorded result category for `COC(=O)[C@H]1Cc2c([nH]c3ccccc23)[C@H](c2ccc3c(c2)OCO3)N1` in this test
Response: false

Query: What outcome does the record of this test show for `COc1ccc(Cn2cc(C(=O)N=Nc3c(O)[nH]c4ccc(Br)cc34)nn2)cc1` ?
Response: false

Query: How was `CCOC(=O)c1c(C)nc2c(c1N)C(=O)C(=O)N2CCc1ccc(OC)c(OC)c1` classified in this test?
Response: false

* * *

# Test system: MDA-MB-231 breast
# Experiment: NCI-60 one-dose screen, 48 h (100 = growth as untreated, 0 = no growth, -100 = all killed)
# Settings: 10 µM unless noted
Compounds without any hit were thinned out: in the full panel of roughly 83,000, 20% have a hit.
Simple rule here: growth less than 80% is satisfied, otherwise not satisfied.

Query: Strictly below 80%: is that where growth of `CC(C)CCc1nc2ccc(NCc3ccc(OCCN4CCC(C)CC4)cc3)cc2[nH]1` sits?
Response: satisfied

Query: # strict comparison: is reported growth < 80%? input = O=c1n(C2OC(CO)C(O)C2O)ccc2nccn12 (configuration not stated)
Response: not satisfied

Query: Consider `CCOC(=O)/C(=C/c1ccc([N+](=O)[O-])cc1)C(=O)c1ccccc1` . Does its growth lie strictly below 80%?
Response: satisfied

Query: Does this molecule meet the criterion growth < 80%? `C#CCOc1cccc(-c2ncnc3cc(NC(=O)CCl)ccc23)c1`
Response: satisfied

Query: Find out if reported growth for `C=C1C(=O)O[C@H]2[C@H]1CC/C(CNC(=O)/C=C/c1cc(OC)c(OC)c(OC)c1)=C\CC[C@@]1(C)O[C@@H]21` is less than 80%
Response: satisfied

Query: Would you kindly verify if growth of `c1ccc2c(-c3cnn4cc(-c5ccc(N6CCNCC6)cc5)cnc34)ccnc2c1` is strictly less than 80%?
Response: satisfied

Query: Determine whether this molecule shows growth lower than 80% (ties excluded): `O=S(=O)(Nc1ccc(Br)cc1)c1ccc(-c2cnc(C3CC3)o2)cc1`
Response: satisfied

Query: Check if growth falls below 80% for N#C/C(=C\c1cccc2cnccc12)N1N=NC2C=CC=CC21 (configuration not stated) .
Response: satisfied

Query: Dear colleague, could you confirm whether growth of COC(=O)c1nc(-c2ccccc2)oc1S(=O)(=O)NCC(c1ccc(Cl)cc1)N1CCCCC1 (configuration not stated) falls below 80%? Thanks.
Response: satisfied

Query: is_below(growth, 80%) for COC(CCP(=O)(c1ccccc1)c1ccccc1)(C(=O)c1ccccc1)c1ccccc1 (configuration not stated) ?
Response: satisfied

Others:
Query: Given the entry `FC(F)(F)c1cccc(-c2nnn(Cc3cc(-c4cccc(Cl)c4)no3)n2)c1` , would its reported growth be below 80%?
Response: not satisfied

Query: Lab note: confirm whether the reported growth for this molecule is below 80%, equality not counting. molecule: `CN1CCN(CC(=O)N(C)c2ccc(N=C(c3ccccc3)c3c(O)[nH]c4ccc([N+](=O)[O-])cc34)cc2)CC1`
Response: satisfied

Query: In plain terms, does `CC(C)(C)n1cc(-c2ccnc(NCCNS(=O)(=O)c3ccc(Br)cc3)c2)c(-c2cccc(O)c2)n1` come in under 80% for growth?
Response: satisfied

Query: Bench note: check whether CCn1c2ccccc2c2cc(C(O)c3cccc4ncccc34)ccc21 (configuration not stated) shows growth below 80%
Response: satisfied

Query: Would you kindly verify if growth of Cc1ccc(C2(C)NC(=O)N(CC(=O)Nc3cccc(C)c3)C2=O)cc1 (configuration not stated) is strictly less than 80%?
Response: not satisfied

Query: Report whether reported growth is lower than 80% (strictly) for `COCCn1cc(-c2nc(-c3cc4cccnc4n3C)cs2)c2cc(OC)ccc21`
Response: satisfied

Query: For `C(CCCSC1=NCCN1)CCSC1=NCCN1` , is the recorded growth below the cut-off of 80%?
Response: not satisfied

Query: Check if growth falls below 80% for `Cn1cc(-c2ccc3c(Nc4cccc(NC(=O)Nc5cccc(F)c5)c4)ncnc3c2)cn1` .
Response: satisfied

Query: Please let me know if `C#CC#CC#CC#CC#CC#CC#CC#CC[C@@H]1OC[C@H](COC(=O)O[C@@H](C(=O)O[C@H]2C[C@@]3(O)[C@@H](OC(=O)c4ccccc4)[C@@H]4[C@]5(OC(C)=O)CO[C@@H]5C[C@H](O)[C@@]4(C)C(=O)[C@H](OC(C)=O)C(=C2C)C3(C)C)[C@@H](NC(=O)c2ccccc2)c2ccccc2)O1` shows growth below 80%.
Response: satisfied

Query: Is it true that growth reported for `Cc1nc2ccccc2c(/C=C/c2ccc(Cl)cc2)c1C(=O)/C=C/c1ccccc1` is less than 80%?
Response: satisfied

Query: Item `O=C(NC1CCCCCC1)c1ccc2c(=O)n3c(nc2c1)CCCCC3` : growth beneath 80%, strictly?
Response: not satisfied

Query: Hello, is growth of the following molecule strictly smaller than 80%? `COc1ccc(/C=C\c2cc(OC)c(OC)c(OC)c2)cc1OCC(=O)Nc1nc2ccccc2s1`
Response: satisfied

Query: Is growth of `C(=N\Nc1nnc2n1N=C(c1ccccc1)CS2)/c1ccc(OCc2ccccc2)cc1` strictly below 80%?
Response: not satisfied

Query: Here's an entry: `Cc1[nH]c(C(=O)Nc2ccc(C(N)=O)cc2OC(C)C)c(Cl)c1Cl` . Is its growth below 80%?
Response: not satisfied
